Origin of values: ChEMBL document CHEMBL4513216

# Tested on: Plasmodium berghei
# assay_method_text: Screen against P. berghei liver stage (PbLuc), transformed with Luciferase, at 10uM
# Format: functional, HepG2
# reported_conditions: tested at 10 uM
Out of some 69,000 compounds screened, about 8,600 (12%) showed an effect of 50% or more. This excerpt belongs to a sample that is enriched for strong results.
Criterion: INHIBITION meeting or surpassing 20%. Met: 1.0. Not met: 0.0.

compound	test_target	answer_label
COc1cccc(-c2noc(-c3ccc(NCCCN)nc3)n2)c1OC	Plasmodium berghei	1.0
CN(C)CCN(C)c1ccc(-c2nc(COc3ccccc3)no2)cn1	Plasmodium berghei	1.0
CC(O)(CNC(=O)NCCc1ccc2c(c1)CCO2)c1ccccc1 (stereo unspecified)	Plasmodium berghei	0.0
c1ccc(CCc2noc(CN3CCC(N4CCSCC4)CC3)n2)cc1	Plasmodium berghei	0.0

Exercise: Quick check: does Cc1ccccc1CC(=O)N1CCOCC1c1c(C)n[nH]c1C (stereo unspecified) have INHIBITION greater than or equal to 20%?
Solution: 1.0

Exercise: Is INHIBITION for Cc1ccc(N2CCCC(NCc3cc(C)on3)C2)nn1 (stereo unspecified) at or above 20%?
Solution: 1.0

Exercise: Could you tell me if the measured INHIBITION of Cc1csc(C(C#N)C(=O)Nc2ccccc2)n1 (stereo unspecified) reaches 20% or more?
Solution: 0.0

* * *

# Tested on: Plasmodium berghei
# assay_method_text: Screen against P. berghei liver stage (PbLuc), transformed with Luciferase, at 10uM
# Type: functional, HepG2
# reported_conditions: tested at 10 uM
Hit rate of the full screen: of about 69,000 compounds, about 8,600 (12%) showed an effect of 50% or more. This is one part of a sample in which strong results are shown more often than they occur.
Threshold rule: INHIBITION greater than or equal to 30% is Met; below that, Not met.

Solved entries (count: 2):
compound	answer_label
Cc1cc(CN2CCc3nc(C)n(C)c(=O)c3CC2)[nH]n1	Met
O=C(NCc1nnc2n1CCCC2)c1ccc(C2CCCO2)s1 (stereo not drawn)	Met

Exercise: Tell me whether INHIBITION is at least 30% here: Cc1nc2c(c(=O)n1C)CCN(Cc1cc3ccccc3[nH]1)CC2
Solution: Met

Exercise: Kindly determine if INHIBITION recorded for CCN(CC1CCOC1)C(=O)NCc1nnc2n1CCCCC2 (stereo not drawn) is above or exactly 30%.
Solution: Met

Exercise: Exam item: decide whether the reported INHIBITION for c1ccc(Cc2nc(CNCCn3cccn3)cs2)cc1 is at least 30%.
Solution: Not met

Exercise: Kindly determine if INHIBITION recorded for O=C1[C@@H]2CC[C@@H](CN(C3CCOCC3)C2)N1Cc1cscn1 is above or exactly 30%.
Solution: Met

Exercise: Assess whether reported INHIBITION for CC(C)Cc1nnc(NC(=O)NC(CCO)c2cccs2)s1 (stereo not drawn) sits at 30% or higher.
Solution: Met

Exercise: Please check the record COCCC(=O)N1CCOCC(Cc2ccc3c(ccn3C)c2)C1 (stereo not drawn) and state if its INHIBITION is at or above 30%.
Solution: Not met

Exercise: Answer whether INHIBITION of C[C@@H]1CN(CCCOc2ccc(F)cc2)CC[C@@]1(O)C1CCOCC1 is greater than or equal to 30%.
Solution: Not met

Exercise: Kindly determine if INHIBITION recorded for CCOc1ccccc1C(=O)Oc1cc(=O)n2cccc(C)c2n1 is above or exactly 30%.
Solution: Not met

Exercise: Hi, just wondering whether Cc1c(NC(=O)NCCO)cccc1OC1CCCC1 shows INHIBITION of 30% or higher.
Solution: Not met

Exercise: Say whether O=C(NCc1nnc2n1CCC2)N(Cc1ccc(F)cc1)C1CC1 shows INHIBITION of 30% or more.
Solution: Met

Exercise: INHIBITION >= 30% for CN(C)C(=O)[C@H]1C[C@H]2OCC[C@H]2N(CCOc2ccc(Cl)cc2)C1 ?
Solution: Not met

Exercise: Please check the record CN(C)C(=O)Cn1c(C2CC2)c(CN2CCOCC2)c2cccnc21 and state if its INHIBITION is at or above 30%.
Solution: Not met

Exercise: # check: INHIBITION of O=S(=O)(Cc1ccc(F)cc1)NCc1nnc2n1CCC2 is greater than or equal to 30%
Solution: Met

Exercise: Item Fc1ccc(-c2nc(CNC3CCc4ncnn4C3)co2)cc1 (stereo not drawn) with INHIBITION of 30% or above?
Solution: Not met

Exercise: Item Cc1ccc(-c2nc(CNCC3CN(C)CCO3)co2)cc1 (stereo not drawn) with INHIBITION of 30% or above?
Solution: Not met

Exercise: Check the entry O=C(NCc1nnc2n1CCCCC2)N(CC1CCOC1)C1CC1 (stereo not drawn) : does INHIBITION equal or exceed 30%?
Solution: Met
